Experiment: chemical genetic growth profiling, strain panel (AID 1159580);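 further: tested at 20 µM; growth read once vehicle control cultures reached saturation at 30 °C; 1 = growth at the plate median or of vehicle wells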
Conditions: S. cerevisiae deletion strains, growth OD, locus YIL125W, strain kgd1
Screen size: about 5,500 compounds; about 2,000 (36%) were called active. About 18% were inconclusive and are not listed. No stated cut-off is given here; in the data, active means normalized growth mostly below about 0.91 (no sharp cut-off); inconclusive means no clear call, values can overlap the other calls; inactive means mostly above about 0.92. This is one part of the list.
Pick one: YES (active), NO (inactive)

molecule	class
CC(C)(C)NC[C@@H](O)COc1nsnc1N1CCOCC1	NO

Could you please tell me the result logged for `CCCCC1(COC(=O)CCC(=O)O)C(=O)N(c2ccccc2)N(c2ccccc2)C1=O` in this assay?
NO

Could you please tell me the result logged for `C=C(CC)C(=O)c1ccc(OCC(=O)O)c(Cl)c1Cl` in this assay?
YES

Could you please tell me the result logged for NCC(CC(=O)O)c1ccc(Cl)s1 (stereo unspecified) in this assay?
NO

Could you please tell me the result logged for CC(C)(C)NCC(O)c1ccccc1Cl (stereo unspecified) in this assay?
NO

Could you please tell me the result logged for `c1ccc2c3c([nH]c2c1)CNCC3` in this assay?
NO

====

Test: chemical genetic growth profiling, strain panel (AID 1159580)
Details: S. cerevisiae deletion strains, growth OD, locus YER167W, strain BCK2
About 2,000 (36%) of roughly 5,500 compounds were called active. Inconclusive results (about 18%) are left out. No stated cut-off is given here; in the data, active means normalized growth mostly below about 0.91 (no sharp cut-off); inconclusive means no clear call, values can overlap the other calls; inactive means mostly above about 0.92. Some of the results follow.
Pick one: active, inactive

Below are worked cases with known answers.
compound	class
CC1(C)C(O)CC(O)C2(C)C1CC(=O)C1(C)C2CCC2(C)C(C(=O)O)OC(=O)C3OC321 (stereo not given)	inactive
Cc1ccsc1/C=C/C1=NCCCN1C	inactive
NCC(CC(=O)O)c1ccc(Cl)s1 (stereo not given)	inactive

Could you please tell me the result logged for C=CC(C1=CC(=O)C(OC)=CC1=O)c1ccccc1 (stereo not given) in this assay?
active

Could you please tell me the result logged for CCCCC(CC)CN1CN(CC(CC)CCCC)CC(C)(N)C1 (stereo not given) in this assay?
active

====

Test: chemical genetic growth profiling, strain panel (AID 1159580)
Conditions: S. cerevisiae deletion strains, growth OD, locus YPR119W, strain clb2, stronger effect = lower value
Screen size: about 5,500 compounds; about 2,000 (36%) were called active. Roughly 18% stayed inconclusive and do not appear here. This is one part of the list.
property-measured: normalized growth
Give bare numbers.

molecule	value-measured
CC(C)NCC(O)c1ccc2ccccc2c1 (stereo not drawn)	0.99
COc1c2c(cc3c1OCO3)CCN(C)C2	1
COc1cc(OC)c2c(=O)c(-c3ccccc3)c(C)oc2c1OC	0.99
Cc1c(O)c(O)cc2c1CC=C1[C@@]2(C)CC[C@@]2(C)C3C[C@](C)(C(=O)O)CC[C@]3(C)CC[C@]12C (stereo partly drawn)	0.979

// batch mode: one normalized growth value per listed entry
1. C=CC(C1=CC(=O)C=CC1=O)c1ccccc1 (stereo not drawn)
2. C=C(CC)C(=O)c1ccc(OCC(=O)O)c(Cl)c1Cl
3. O=C(O)c1cccnc1Nc1cccc(C(F)(F)F)c1
4. CC(=O)c1c(O)c(C)c(O)c2c1OC1=CC(=O)C(C(C)=O)C(=O)C12C (stereo not drawn)

0.975
0.973
0.934
0.964

====

Test: chemical genetic growth profiling, strain panel (AID 1159580)
Conditions: S. cerevisiae deletion strains, growth OD, locus YJL095W, strain BCK1, stronger effect = lower value
Hit rate of the full screen: of about 5,500 compounds, about 2,000 (36%) were called active. Another 18% or so got no clear call; they are omitted. The list shows a part of the results.
// boundary case: normalized growth equal to 1 maps to Condition not met; strictly smaller maps to Condition met

smiles-code	class
O=C(O)/C=C/c1ccccc1	Condition met
CC(=O)NCCCCCC(=O)O	Condition not met
COC(=O)C1=C(C)NC(C)=C(C(=O)OC)C1c1ccc(Cl)cc1Cl	Condition met
CCOC(=O)/C(=N/Nc1c(Cl)cccc1Cl)c1csc(N)n1	Condition met
O=C(O)c1ccccc1Nc1cccc(OCc2ccc3ccccc3n2)c1	Condition not met
Fc1cccc(F)c1NC(=S)Nc1cc(C(F)(F)F)cc(C(F)(F)F)c1	Condition met
O=C(NCCSCc1cccc(C(F)(F)F)c1)c1ccc(Cl)cc1	Condition met
S=C(N/N=C\c1ccc(Cl)cc1)N/N=C\c1ccc(Cl)cc1	Condition met
NC(=Nc1ccc(F)cc1)SCc1c(Cl)cccc1Cl	Condition met

Note: attention shifts to another entry.
Dear reviewer, please state whether `O=C(NCCSCc1ccco1)Nc1cc(Cl)cc(Cl)c1` has normalized growth strictly beneath 1.
Condition met

====

Assay: chemical genetic growth profiling, strain panel (AID 1159580);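 further: tested at 20 µM; growth read once vehicle control cultures reached saturation at 30 °C; 1 = growth at the plate median or of vehicle wells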
Details: S. cerevisiae deletion strains, growth OD, locus YDR137W, strain rgp1, stronger effect = lower value
Hit rate of the full screen: of about 5,500 compounds, about 2,000 (36%) were called active. Roughly 18% stayed inconclusive and do not appear here. This is one part of the list.
Please provide measured normalized growth for the entries that follow.
Give bare numbers.

Illustrative cases are given below, each with its answer.
compound	value-measured
Cc1ccc(/C(=C\CN2CCCC2)c2ccccn2)cc1	0.993
OC[C@@H](O)[C@@H](O[C@@H]1O[C@H](CO)[C@@H](O)[C@H](O)[C@H]1O)[C@H](O)[C@@H](O)CO	1
C1CCN2C[C@@H]3C[C@H](CN4CCCC[C@@H]34)[C@H]2C1	1.01
O=c1[nH]c(=O)n(C2C[C@@H](O)[C@@H](CO)O2)cc1F (stereo not given in full)	0.989

Here is another compound to look at.
What the record says about `COc1c2c(cc3c1OCO3)CCN(C)C2` : normalized growth is 1.01

====

Assay: chemical genetic growth profiling, strain panel (AID 1159580);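 further: tested at 20 µM; growth read once vehicle control cultures reached saturation at 30 °C; 1 = growth at the plate median or of vehicle wells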
Conditions: S. cerevisiae deletion strains, growth OD, locus YKL203C, strain TOR2, stronger effect = lower value
In all, about 5,500 compounds went through this assay and about 2,000 (36%) were called active. Roughly 18% stayed inconclusive and do not appear here. This is one part of the list.
Please provide measured normalized growth for the entries that follow.
One number for each entry.

CC(=O)Nc1ccc([N+](=O)[O-])cc1[N+](=O)[O-] 0.213
CSc1ccc(/C=C(\C)[N+](=O)[O-])cc1 0.115
Cc1cc(Br)ccc1-n1c(Sc2c([N+](=O)[O-])cc(C(F)(F)F)cc2[N+](=O)[O-])nc2ccccc2c1=O 1
CSc1cc(-c2ccncc2)nc(-c2cccs2)c1 1
CC(C)c1ccc(NC(=S)NC(=O)c2ccccc2)cc1 0.96

// batch mode: one normalized growth value per listed entry
1. CC(=O)Nc1ccc(/C=C/[N+](=O)[O-])cc1
2. CSc1ccc(/C=C/[N+](=O)[O-])cc1
3. Cc1nn(Cc2ccc(C(=O)Sc3ccc(C(F)(F)F)cn3)o2)c(C)c1Br
4. O=C(Nc1ccc(C(F)(F)F)cc1)N1CCN(c2ccnc3cc(Cl)ccc23)CC1
5. CCCc1c(C(=O)NC2Cc3ccccc3C2)cnn1-c1ccccc1
6. N#CC(C#N)=C/C=C(/Sc1ccc(F)c(Cl)c1)c1ccc(Cl)cc1
7. O=C(c1ccccc1)c1cc(Cl)ccc1NC(=S)Nc1ccc(F)cc1
8. CC(=O)c1sc(SCCS(=O)(=O)c2ccc(C)cc2)c2c1CC(C)(C)CC2=O

[0.852, 0.107, 0.892, 1.06, 1.01, 0.87, 1, 0.635]

// batch mode: one normalized growth value per listed entry
1. C/C(=C\c1ccc2c(c1)OCO2)[N+](=O)[O-]
2. O=C(NCCSCc1cccc(C(F)(F)F)c1)Nc1cccc(C(F)(F)F)c1
3. S=C(N/N=C\c1ccc(Cl)cc1)N/N=C\c1ccc(Cl)cc1
4. Cn1c(CSCCOc2ccccc2)nnc1SCc1ccc(Cl)cc1Cl
5. O=C(NCCSCc1ccco1)Nc1cc(Cl)cc(Cl)c1

1. 0.107
2. 1.09
3. 0.783
4. 1.07
5. 0.916

====

Test: chemical genetic growth profiling, strain panel (AID 1159580);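 further: tested at 20 µM; growth read once vehicle control cultures reached saturation at 30 °C; 1 = growth at the plate median or of vehicle wells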
Conditions: S. cerevisiae deletion strains, growth OD, locus YJR043C, strain POL32, stronger effect = lower value
Hit rate of the full screen: of about 5,500 compounds, about 2,000 (36%) were called active. Another 18% or so got no clear call; they are omitted. The list shows a part of the results.
property-measured: normalized growth

molecule	value-measured
CCOP(=S)(OCC)SCn1c(=O)oc2cc(Cl)ccc21	1.01 (inactive)
CC(=O)Nc1cc([As](=O)(O)O)ccc1O	0.997 (inactive)
CC(=O)OC1CC(OC(C)=O)C2(C)C(CC(OC(C)=O)C3(C)C2CCC2(C)C(c4ccoc4)CC4OC423)C1(C)C (stereo unspecified)	0.981 (inactive)
O=C(CCCCCCCCCCCCC1CCCC1)Nc1ccc(S(=O)(=O)c2ccc(NC(=O)CCCCCCCCCCCCC3CCCC3)cc2)cc1	1.03 (inactive)
CC(=O)N/C(=C/c1ccc2c(c1)OCO2)C(=O)O	1.01 (inactive)

Here is another molecule to look at.
What the record says about `CCn1nc(C)c(Br)c1-c1nc(-c2ccc(C(F)(F)F)cc2)no1` : normalized growth is 1.01 (inactive)
